# assay method text: Retention of peptides P1-1 to P1-5 on a polypropylene sheet after successive washes
# Type: physicochemical
# study conditions: after first wash: 1 M NaCl/10 mM tris-HCl (pH 8.0), one minute
# Protocol: Further experiments were undertaken to investigate the retention of peptides P1-1 to, P1-5 and P2-1 to P2-2, shown in Table 3, on a polypropylene surface. The polypropylene sheet was wiped with 50% (v/v) aqueous acetonitrile prior to use. 8× replicate 20 nl volumes of 1 μM peptides P1-1 to P1-5 and P2-1 to P2-2 and TAMRA in dimethyl sulphoxide (DMSO) were dispensed at 1 mm spacing to a 3″×1″×1 mm polypropylene sheet using the Piezorray system (PerkinElmer LAS). […]
Ends that are not written are not given here.
measurement name: Average fluorescence, test array

Problem: Tell us which Average fluorescence, test array value is on record for TAMRA-F-G-F-G-F-S-F-A-F-D-F-G-F ({TAMRA}-FGFGFSFAFDFGF) [Peptide P1-2]
Solution: 170,078,218

Problem: Tell us which Average fluorescence, test array value is on record for TAMRA-F-G-F-G-F-G-F-S-F-A-F-D-F-G-F ({TAMRA}-FGFGFGFSFAFDFGF) [Peptide P1-3]
Solution: 171,197,973

Problem: Tell us which Average fluorescence, test array value is on record for TAMRA-F-G-F-G-F-G-F-G-F-G-F-S-F-A-F-D-F-G-F ({TAMRA}-FGFGFGFGFGFSFAFDFGF) [Peptide P1-5]
Solution: 201,991,732

Problem: Tell us which Average fluorescence, test array value is on record for TAMRA-F-G-F-G-F-G-F-G-F-S-F-A-F-D-F-G-F ({TAMRA}-FGFGFGFGFSFAFDFGF) [Peptide P1-4]
Solution: 189,823,310

Please examine the following record next.
Problem: Tell us which Average fluorescence, test array value is on record for TAMRA-F-G-F-S-F-A-F-D-F-G-F ({TAMRA}-FGFSFAFDFGF) [Peptide P1-1]
Solution: 157,624,537

* * *

# Untreated fluorescence values compiled below
# assay method text: Retention of peptides on Costar polypropylene V-bottom wells
# Type: physicochemical
# study conditions: 400V scan, unwashed
Ends that are not written are not given here.

Problem: Tell us which Untreated fluorescence value is on record for N-TAMRA-Ser-Asp- Ser-Asp-Ser-Asp- Ser-Asp-Ser-C ({TAMRA}-SDSDSDSDS) [Peptide 2DOS-11]
Solution: 5,327,435

Problem: Tell us which Untreated fluorescence value is on record for N-TAMPA-Asp-Asp- Asp-Asp-Asp-Asp- Asp-C ({TAMRA}-DDDDDDD) [Peptide 2DOS-16]
Solution: 5,387,850

Problem: Tell us which Untreated fluorescence value is on record for N-TAMPA-Asp-Asp- Asp-Ala-Asp-Ser- Asp-Lys-Asp-C ({TAMRA}-DDDADSDKD) [Peptide 2DOS-4]
Solution: 5,661,181

Problem: Tell us which Untreated fluorescence value is on record for N-TAMRA-Asp-Phe- Asp-Phe-Asp-Phe- Asp-C ({TAMRA}-DFDFDFD) [Peptide 2DOS-14]
Solution: 5,331,894

Please examine the following record next.
Problem: Tell us which Untreated fluorescence value is on record for N-TAMRA-Asp-Phe- Ala-Phe-Ser-Phe- Lys-C ({TAMRA}-DFAFSFK) [Peptide 2DOS-6]
Solution: 5,733,046

* * *

# assay method text: Retention of peptides P1-1 to P1-5 on a polypropylene sheet after successive washes
# Type: physicochemical
# study conditions: after first wash scan; unwashed control array
Ends that are not written are not given here.
measurement name: Average fluorescence, control array

Problem: Tell us which Average fluorescence, control array value is on record for TAMRA-F-G-F-S-F-A-F-D-F-G-F ({TAMRA}-FGFSFAFDFGF) [Peptide P1-1]
Solution: 244,263,013

Problem: Tell us which Average fluorescence, control array value is on record for TAMRA-F-G-F-G-F-G-F-G-F-S-F-A-F-D-F-G-F ({TAMRA}-FGFGFGFGFSFAFDFGF) [Peptide P1-4]
Solution: 187,287,630

Problem: Tell us which Average fluorescence, control array value is on record for TAMRA-F-G-F-G-F-S-F-A-F-D-F-G-F ({TAMRA}-FGFGFSFAFDFGF) [Peptide P1-2]
Solution: 200,280,129

Continuing:
Problem: Tell us which Average fluorescence, control array value is on record for TAMRA-F-G-F-G-F-G-F-G-F-G-F-S-F-A-F-D-F-G-F ({TAMRA}-FGFGFGFGFGFSFAFDFGF) [Peptide P1-5]
Solution: 199,347,483

Problem: Tell us which Average fluorescence, control array value is on record for TAMRA-F-G-F-G-F-G-F-S-F-A-F-D-F-G-F ({TAMRA}-FGFGFGFSFAFDFGF) [Peptide P1-3]
Solution: 192,743,469

* * *

# assay method text: Retention of peptides P1-1 to P1-5 on a polypropylene sheet after successive washes
# Type: physicochemical
# study conditions: after first wash scan; unwashed control array; slide background subtracted
Ends that are not written are not given here.
measurement name: Corrected signal, control array

Solved entries:
Problem: Tell us which Corrected signal, control array value is on record for TAMRA-F-G-F-G-F-G-F-S-F-A-F-D-F-G-F ({TAMRA}-FGFGFGFSFAFDFGF) [Peptide P1-3]
Solution: 46,051,796

Problem: Tell us which Corrected signal, control array value is on record for TAMRA-F-G-F-G-F-G-F-G-F-S-F-A-F-D-F-G-F ({TAMRA}-FGFGFGFGFSFAFDFGF) [Peptide P1-4]
Solution: 40,595,958

Problem: Tell us which Corrected signal, control array value is on record for TAMRA-F-G-F-S-F-A-F-D-F-G-F ({TAMRA}-FGFSFAFDFGF) [Peptide P1-1]
Solution: 97,571,341

Continuing:
Problem: Tell us which Corrected signal, control array value is on record for TAMRA-F-G-F-G-F-S-F-A-F-D-F-G-F ({TAMRA}-FGFGFSFAFDFGF) [Peptide P1-2]
Solution: 53,588,457

Problem: Tell us which Corrected signal, control array value is on record for TAMRA-F-G-F-G-F-G-F-G-F-G-F-S-F-A-F-D-F-G-F ({TAMRA}-FGFGFGFGFGFSFAFDFGF) [Peptide P1-5]
Solution: 52,655,810

* * *

# Corrected signal, test array values compiled below
# assay method text: Retention of peptides P1-1 to P1-5 on a polypropylene sheet after successive washes
# Assay type: physicochemical
# study conditions: after second wash: 1 M NaCl/10 mM tris-HCl (pH 8.0), 30 minutes; background subtracted
Ends that are not written are not given here.

Solved entries:
Problem: Tell us which Corrected signal, test array value is on record for TAMRA-F-G-F-G-F-S-F-A-F-D-F-G-F ({TAMRA}-FGFGFSFAFDFGF) [Peptide P1-2]
Solution: 3,248,336

Problem: Tell us which Corrected signal, test array value is on record for TAMRA-F-G-F-G-F-G-F-S-F-A-F-D-F-G-F ({TAMRA}-FGFGFGFSFAFDFGF) [Peptide P1-3]
Solution: 16,278,152

Problem: Tell us which Corrected signal, test array value is on record for TAMRA-F-G-F-G-F-G-F-G-F-S-F-A-F-D-F-G-F ({TAMRA}-FGFGFGFGFSFAFDFGF) [Peptide P1-4]
Solution: 26,653,223

Problem: Tell us which Corrected signal, test array value is on record for TAMRA-F-G-F-G-F-G-F-G-F-G-F-S-F-A-F-D-F-G-F ({TAMRA}-FGFGFGFGFGFSFAFDFGF) [Peptide P1-5]
Solution: 35,418,169

Continuing:
Problem: Tell us which Corrected signal, test array value is on record for TAMRA-F-G-F-S-F-A-F-D-F-G-F ({TAMRA}-FGFSFAFDFGF) [Peptide P1-1]
Solution: −5,230,512

* * *

# assay method text: Retention of peptides on Greiner polypropylene V-bottom wells
# Format: physicochemical
# study conditions: 400V scan, unwashed
Ends that are not written are not given here.
measurement name: Untreated fluorescence

Solved entries:
Problem: Tell us which Untreated fluorescence value is on record for N-TAMPA-Asp-Asp- Asp-Asp-Asp-Asp- Asp-C ({TAMRA}-DDDDDDD) [Peptide 2DOS-16]
Solution: 3,813,060

Problem: Tell us which Untreated fluorescence value is on record for N-TAMPA-Asp-Asp- Asp-Asp-Asp-Asp- Asp-Asp-Asp-C ({TAMRA}-DDDDDDDDD) [Peptide 2DOS-12]
Solution: 3,235,590

Problem: Tell us which Untreated fluorescence value is on record for N-TAMPA-Asp-Asp- Ala-Asp-Ser-Asp- Lys-C ({TAMRA}-DDADSDK) [Peptide 2DOS-8]
Solution: 3,903,470

Problem: Tell us which Untreated fluorescence value is on record for N-TAMRA-Ser-Asp- Ser-Ala-Ser-Ser- Ser-Lys-Ser-C ({TAMRA}-SDSASSSKS) [Peptide 2DOS-3]
Solution: 3,583,352

Please examine the following record next.
Problem: Tell us which Untreated fluorescence value is on record for N-TAMRA-Asp-Phe- Ala-Phe-Ser-Phe- Lys-C ({TAMRA}-DFAFSFK) [Peptide 2DOS-6]
Solution: 3,889,995

Reference source: patent US20090192048A1
